measurement_target: recombinant human MCHR1 receptors (Homo sapiens)
Construct: expressed in transfected cells
Sequence (Q99705 whole entry): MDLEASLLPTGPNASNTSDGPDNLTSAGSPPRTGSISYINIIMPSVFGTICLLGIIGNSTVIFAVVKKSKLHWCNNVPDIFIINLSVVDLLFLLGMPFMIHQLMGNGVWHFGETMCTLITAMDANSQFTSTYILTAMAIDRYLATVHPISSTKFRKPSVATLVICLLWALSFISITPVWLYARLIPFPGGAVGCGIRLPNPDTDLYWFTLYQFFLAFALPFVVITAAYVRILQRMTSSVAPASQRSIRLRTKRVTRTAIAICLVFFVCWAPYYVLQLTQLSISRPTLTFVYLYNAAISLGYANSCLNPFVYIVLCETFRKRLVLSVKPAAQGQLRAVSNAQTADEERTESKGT
assay_method_text: MCHR Filter Binding Assay (competition binding with [Phe13[125I]Tyr19]-MCH)
stated_conditions: membranes from CHO-K1 cells stably expressing human MCHR1; 0.2 nM radiolabeled MCH; read-out: Activity in MCHR binding assays (IC50 class)
pIC50: −log10 of the molar value.
# pIC50 listing for each entry below
outcome_measure: pIC50

• CC(C)(O)c1nc2cc(Cl)ccc2n1[C@H]1CC[C@@H](NC[C@@H]2Cc3ccc(C#N)cc3C2)CC1 = > 8.00
• CC(C)(O)c1nc2cc(Cl)ccc2n1[C@H]1CC[C@@H](NC[C@@H]2Cc3ccc(Br)cc3C2)CC1 = 7.00 to 8.00
• Cc1ccc2c(c1)nc(C)n2[C@@H]1CC[C@H](NC[C@H]2Cc3ccc(Br)cc3C2)C1 = 6.00 to 7.00
• CC(C)(O)c1nc2cc(Cl)ccc2n1[C@H]1CC[C@@H](NC[C@H]2Cc3ccc(C#N)cc3C2)CC1 = > 8.00

Hello, the source for this data is patent US7652053B2, in case you need it.
